Test system: HEK293
Experiment: Selectivity index, ratio of Ki for human recombinant CB1 receptor expressed in HEK293 cell membranes to Ki for human recombinant CB2 receptor expressed in HEK293 cell membranes
Assay type: cell-based
quantity: Ratio Ki

Each of the following entries comes with a recorded value; kindly state Ratio Ki for each.
1. CCNC(=O)NCCCCCSc1ccc2ccccc2c1
2. CCCC(C)(C)c1ccc2c(c1)OC(C)(C)[C@@H]1CC=C(C)C[C@@H]21
3. CCOC(=O)CNC(=O)/C=C/C=C/c1ccc2c(c1)OCCO2
4. O=C(/C=C/C=C/c1ccc2ccccc2c1)NCCO
5. CCS(=O)(=O)NCCCCCSc1ccc2ccccc2c1
6. O=C(/C=C/C=C/c1ccc2ccccc2c1)NC1CC1

// result
["> 17.9", "> 71.4", "> 3.9", "> 7.87", "> 7.58", "> 12.2"]
